The reader will find reported Relative area of hair loss values listed item by item below.
- Tested on: doxorubicin-induced aged C57BL6J mice
- EXPERIMENT NOTES: Hair loss area in doxorubicin-aged mice, Example 22-11, Table 40
- Assay type: in vivo, mouse
- CONDITION NOTES: doxorubicin-induced aged mice; untreated 100 (±15.4)

Take a look at these entries with their results.
O=C1C2CCN(CC2)C1CNC(=O)C(F)(F)F (stereo not drawn) [LX-5701]: 67 (±17.8) %
C[C@H]1[C@H](C)CC[C@]2(C(=O)O)CC[C@]3(C)C(=CC[C@@H]4[C@@]5(C)CC[C@H](O)C(C)(C)[C@@H]5CC[C@]43C)[C@H]12 [LX-2001, Ursolic acid]: 80 (±6.9) %
CC1(C)CC[C@]2(C(=O)O)CC[C@]3(C)C(=CC[C@@H]4[C@@]5(C)CC[C@H](O)C(C)(C)[C@@H]5CC[C@]43C)[C@@H]2C1 [LX-2003, Oleanolic acid]: 79 (±6.7) %

Look up and report measured Relative area of hair loss for this entry: C#CC(=O)N1[C@@H](CCCC)Cc2cc(OC)ccc2[C@@H]1c1ccc(NC23CC4CC(CC(C4)C2)C3)cc1 [LX-5411]
77 (±4.1) %

Look up and report measured Relative area of hair loss for this entry: C[C@@H]1CC[C@@]23C[C@H](O)C(=O)[C@@]2(O)[C@]1(C)[C@H](OC(=O)CCl)C[C@@H](C1=CCn2c(=O)n(-c4ccccc4)c(=O)n2C1)[C@@H]3C [LX-1801]
78 (±5.4) %

Look up and report measured Relative area of hair loss for this entry: O=C(C(C[N+](=O)[O-])=NO)N1CCN(C(c2ccc(Cl)cc2)c2ccc(Cl)cc2)CC1 [LX-403]
76 (±5.5) %

---

- Test system: senescent human cells
- EXPERIMENT NOTES: Viability of doxorubicin-induced senescent human cells (CellTiter-Glo), Example 11
- Format: cell-based
- CONDITION NOTES: 1.1 μM; 0 μM = 100
The reader will find reported Survival values listed item by item below.
The number alone won't do; follow it with the unit.

C[N+](C)(C)CCO.C[N+](C)(C)CCO.[SH-].[SH-].[S]=[Mo]=[S] [LX-2601]: 95.2%
S=C(N/N=C1\CCCc2cccnc21)N1CCN(c2ccccn2)CC1 [LX-801]: 50.5%
Cc1nc(-c2nc(-c3ccc(OC(F)(F)F)cc3)no2)nn1Cc1cccc(N2CCC(S(C)(=O)=O)CC2)c1 [LX-3200]: 92.2%
CN(Cc1cnc2nc(N)nc(N)c2n1)c1ccc(C(=O)N[C@@H](CCC(=O)O)C(=O)O)cc1 [LX-2901, Methotrexate]: 103.3%

Continue with the next compound.
Look up and report measured Survival for this entry: CCOC(=O)[C@@H](N)CCC(=O)N[C@@H](CSCc1ccccc1)C(=O)N[C@@H](C(=O)OCC)c1ccccc1 [LX-2602, Ezatiostat]
97.3%

---

The reader will find reported Fat Mass values listed item by item below.
- System: naturally aged mice
- EXPERIMENT NOTES: Anti-aging evaluation in naturally aged mice, Example 31, Table 55;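 further: Vehicle-dosed control mice received solution alone at matching volume, values compare test-compound-treated aged mice against that control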
- Format: in vivo, mouse
- CONDITION NOTES: untreated 0.82 g
The reply should contain only the number, in g.

CN(NC(=O)CC(=O)NN(C)C(=S)c1ccccc1)C(=S)c1ccccc1 [LX-6501, Elesclomol]: 0.89

Look up and report measured Fat Mass (naturally aged mice) for the following compound: COC[C@]1(CO)C(=O)[C@H]2CC[N@]1[C@H](C)C2 [LX-5731]
1.01

Look up and report measured Fat Mass (naturally aged mice) for the following compound: CCOC(=O)[C@@H](N)CCC(=O)N[C@@H](CSCc1ccccc1)C(=O)N[C@@H](C(=O)OCC)c1ccccc1 [LX-2602, Ezatiostat]
0.84

---

- System: senescent A549 cells
- EXPERIMENT NOTES: Viability of senescent A549 cells (CellTiter-Glo), Example 18, Table 15
- CONDITION NOTES: […]; doxorubicin-induced senescent A549 cells; 0 μM = 100%
The reader will find reported Survival (%) values listed item by item below.

Take a look at these entries with their results.
CN(CC(=O)Nc1nc2ccc(OC(F)(F)F)cc2s1)C(=O)CNC(=O)CN: 87.5%
CCO[C@@H](Cc1ccc(OCCn2c(C)ccc2-c2ccc(SC)cc2)cc1)C(=O)[O-].CCO[C@@H](Cc1ccc(OCCn2c(C)ccc2-c2ccc(SC)cc2)cc1)C(=O)[O-].[Mg+2]: 87.6%

Continue with the next molecule.
Look up and report measured Survival (%) for this entry: COC[C@]1(CO)C(=O)[C@H]2CC[N@]1[C@H](C)C2
83.1%

---

- System: naturally aged C57BL6J mice
- EXPERIMENT NOTES: Frailty (open field, wire hanging, grip strength, muscle and fat tissue) in naturally aged mice, Example 21-7, Table 23
- Format: in vivo, mouse
- CONDITION NOTES: untreated aged = 100%
MEASURED QUANTITY: Grip Sterenght Test Strength (%)

CC1(C)CC[C@]2(NC(=O)C(C)(F)F)CC[C@]3(C)[C@H](C(=O)C=C4[C@@]5(C)C=C(C#N)C(=O)C(C)(C)[C@@H]5CC[C@]43C)[C@@H]2C1 [LX-2101, Omaveloxolone]: 121 (±4.1) %
O=C1C2CCN(CC2)C1CNC(=O)C(F)(F)F (centres unmarked) [LX-5701]: 119 (±3.8) %
COC(=O)[C@]12CCC(C)(C)C[C@H]1[C@H]1C(=O)C=C3[C@@]4(C)C=C(C#N)C(=O)C(C)(C)[C@@H]4CC[C@@]3(C)[C@]1(C)CC2 [LX-2102, Bardoxolone methyl]: 116 (±9.2) %
Cc1cccc([C@H](C)c2cnc[nH]2)c1C [LX-6807, Dexmedetomidine]: 128 (±6.2) %

Continue with the next compound.
Look up and report measured Grip Sterenght Test Strength (%) for this entry: CCCC\C=C/C=C/C=C\CCCCCCCC(=O)O [LX-2707, Punicic acid]
117 (±3.6) %

---

- Tested on: senescent cells
- EXPERIMENT NOTES: Viability of senescent cells (CellTiter-Glo), Example 17, Table 13
- CONDITION NOTES: Homo sapiens, read-out: Survival (%)
The reader will find reported viability at 1.1 µM values listed item by item below.

Take a look at these entries with their results.
CC(C)(C)OC(=O)NC1CCN(c2ccc(-c3cnc4[nH]cc(C(=O)C(=O)NCCc5ccccn5)c4c3)cn2)CC1 [LX-5341]: 99.1%
C[C@H]1Oc2cc(cnc2N)-c2c(nn(C)c2C#N)CN(C)C(=O)c2ccc(F)cc21 [LX-5449, Lorlatinib]: 89.1%
NC(=O)c1ncn([C@@H]2O[C@H](CO)[C@@H](O)[C@H]2O)n1 [LX-6537, Ribavirin]: 90.9%
O=C1C2CCN(CC2)C1CNC(=O)C(F)(F)F (centres unmarked) [LX-5701]: 91.4%
O=C1C2CCN(CC2)C1(CO)COCc1ccccc1 (centres unmarked) [LX-5711]: 95.1%

Continue with the next compound.
Look up and report measured viability at 1.1 µM for this entry: C[C@@]12C[C@@]3(O)O[C@@H](O1)[C@]1(COC(=O)c4ccccc4)[C@H]3C[C@@]12O[C@@H]1O[C@H](CO)[C@@H](O)[C@H](O)[C@H]1O [LX-6804, Paeoniflorin]
87.5%

---

- System: senescent cells
- EXPERIMENT NOTES: Viability of senescent cells (CellTiter-Glo), Example 17, Table 13
- CONDITION NOTES: 30 μM; doxorubicin-induced senescent cells; 0 μM = 100
MEASURED QUANTITY: Survival (%)

Take a look at these entries with their results.
CN1CCc2c(c3ccccc3n2Cc2ccc(C(=O)NO)cc2)C1: 1.9%
CCCCCC/C=C\CCCCCCCCCC(=O)N[C@H]1[C@H](OC[C@H]2O[C@H](OP(=O)([O-])[O-])[C@H](NC(=O)CC(=O)CCCCCCCCCCC)[C@@H](OCCCCCCCCCC)[C@@H]2O)O[C@H](COC)[C@@H](OP(=O)([O-])[O-])[C@@H]1OCC[C@@H](CCCCCCC)OC.[Na+].[Na+].[Na+].[Na+] [LX-9136, Eritoran tetrasodium]: 23.1%
CCNCc1nc2c(O)c(Cl)cc(Cl)c2c(=O)n1C: 25.9%
CN(CCOc1ccc(CC2SC(=O)NC2=O)cc1)c1ccccn1 (stereo not drawn): 8.7%
CCCCCCCCCCCCCCCCCCCC(=O)N[C@H]1CC[C@@]2(C)[C@@H](C1)C[C@@H](O)[C@@H]1[C@@H]2C[C@H](O)[C@]2(C)[C@@H]([C@H](C)CCC(=O)O)CC[C@@H]12: 30.5%

Look up and report measured Survival (%) for this entry: CC(=O)[O-].CC(=O)[O-].CCc1c(CC)c2cc3nc(cnc4cc(OCCOCCOCCOC)c(OCCOCCOCCOC)cc4ncc4nc(cc1[n-]2)C(CCCO)=C4C)C(C)=C3CCCO.O.[Gd+3]
87.1%

Recorded values, source patent US20260306460A1.
